- STUDY_SYSTEM: MKNK1 (human)
- ASSAY: radiometric filter-binding kinase assay
- RECORDED_CONDITIONS: compound 100.0 µM; ATP 50 µM
MEASUREMENT_LABEL: inhibition (%)

INSERT INTO measurements (compound, measurement_label, experimental_result) VALUES
  ('Nc1cnc2c(-c3c(F)cccc3F)cccn2c1=O', 'inhibition', 1);

(A) O=C(Nc1cnc2[nH]cnn2c1=O)c1ccccc1
(B) COc1ccc(-c2cc3c(=O)[nH]cnc3s2)cc1OC
Enquiry: Lab notebook, comparison: A versus B , higher inhibition goes to which? Kindly state the label of the option you pick.
Return: B
(B: 5%, A: 0%)

(P) Nc1nc2cnc(-c3ccccc3)cn2n1
(Q) CC(C)(C)Nc1c(C2CC2)nc2[nH]cnn12
(R) O=c1cc(-c2ccccc2F)nc2[nH]ccn12
Enquiry: Which order do these items take when sorted by rising inhibition? List them. // format: requested-order list of labels
Return: Q, R, P
(Q: 0%, R: 31%, P: 71%)

###

- STUDY_SYSTEM: MAPK1 (human)
- ASSAY: radiometric filter-binding kinase assay
- RECORDED_CONDITIONS: compound 100.0 µM; ATP 20 µM
MEASUREMENT_LABEL: inhibition (%)

Below, 3 compounds whose answers are already recorded.
INSERT INTO results (molecule, experimental_result) VALUES
  ('O=c1cc(-c2ccccc2F)nc2[nH]ccn12', 8),
  ('Nc1cnc2c(-c3c(F)cccc3F)cccn2c1=O', 13),
  ('CC(=O)Nc1nc2cnc(-c3c(C)cccc3C)cn2n1', 0);

(I) CC(=O)Nc1nc2cnc(-c3ccccc3)cn2n1
(II) Cc1cccc(C)c1-c1cn2nc(N)nc2cn1
(III) O=C(c1cccc(-c2cc3c(=O)[nH]cnc3s2)c1)N1CCOCC1
(IV) CC(C)(C)Nc1c(C2CC2)nc2[nH]cnn12
Enquiry: Hey, quick one: sort these by inhibition, largest value first please. // format: requested-order list of labels
Return: II, I, III, IV
(II: 14%, I: 7%, III: 1%, IV: 0%)

###

- STUDY_SYSTEM: RPS6KA5 KD1 KD2 (human) (UniProt O75582)
- Sequence (O75582 whole entry, looked up): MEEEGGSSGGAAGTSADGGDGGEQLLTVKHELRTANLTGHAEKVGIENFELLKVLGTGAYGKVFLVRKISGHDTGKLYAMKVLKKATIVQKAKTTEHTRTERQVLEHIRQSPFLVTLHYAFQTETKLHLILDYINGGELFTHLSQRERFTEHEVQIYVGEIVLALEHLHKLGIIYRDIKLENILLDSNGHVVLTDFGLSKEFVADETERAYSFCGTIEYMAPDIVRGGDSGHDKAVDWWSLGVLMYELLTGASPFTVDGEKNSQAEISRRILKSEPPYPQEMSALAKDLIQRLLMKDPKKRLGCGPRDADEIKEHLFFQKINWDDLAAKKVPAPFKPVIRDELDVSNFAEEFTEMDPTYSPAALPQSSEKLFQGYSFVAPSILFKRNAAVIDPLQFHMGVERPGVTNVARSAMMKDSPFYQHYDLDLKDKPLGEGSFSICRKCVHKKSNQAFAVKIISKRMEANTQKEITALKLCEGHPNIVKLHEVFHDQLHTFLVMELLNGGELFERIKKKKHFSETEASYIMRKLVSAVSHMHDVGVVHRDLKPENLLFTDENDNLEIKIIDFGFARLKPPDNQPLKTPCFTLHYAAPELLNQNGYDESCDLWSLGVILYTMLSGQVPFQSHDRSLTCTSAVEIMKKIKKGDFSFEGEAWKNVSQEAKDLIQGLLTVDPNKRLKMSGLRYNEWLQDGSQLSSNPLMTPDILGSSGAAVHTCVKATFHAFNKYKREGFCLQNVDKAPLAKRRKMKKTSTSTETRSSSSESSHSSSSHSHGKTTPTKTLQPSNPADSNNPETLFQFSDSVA
- ASSAY: radiometric filter-binding kinase assay
- RECORDED_CONDITIONS: compound 100.0 µM; ATP 20 µM
MEASUREMENT_LABEL: inhibition (%)

(1) O=c1c(NC(=S)NCc2ccccc2)cnc2[nH]ccn12
(2) CC(=O)Nc1nc2cnc(-c3ccccc3)cn2n1
(3) O=C(c1cccc(-c2cc3c(=O)[nH]cnc3s2)c1)N1CCOCC1
Enquiry: Using the recorded inhibition, list the entries above from smallest to largest. // format: requested-order list of labels
Return: 1, 2, 3
(1: 0%, 2: 11%, 3: 24%)

###

- STUDY_SYSTEM: MKNK1 (human) (UniProt Q9BUB5)
- Sequence (Q9BUB5 whole entry, looked up): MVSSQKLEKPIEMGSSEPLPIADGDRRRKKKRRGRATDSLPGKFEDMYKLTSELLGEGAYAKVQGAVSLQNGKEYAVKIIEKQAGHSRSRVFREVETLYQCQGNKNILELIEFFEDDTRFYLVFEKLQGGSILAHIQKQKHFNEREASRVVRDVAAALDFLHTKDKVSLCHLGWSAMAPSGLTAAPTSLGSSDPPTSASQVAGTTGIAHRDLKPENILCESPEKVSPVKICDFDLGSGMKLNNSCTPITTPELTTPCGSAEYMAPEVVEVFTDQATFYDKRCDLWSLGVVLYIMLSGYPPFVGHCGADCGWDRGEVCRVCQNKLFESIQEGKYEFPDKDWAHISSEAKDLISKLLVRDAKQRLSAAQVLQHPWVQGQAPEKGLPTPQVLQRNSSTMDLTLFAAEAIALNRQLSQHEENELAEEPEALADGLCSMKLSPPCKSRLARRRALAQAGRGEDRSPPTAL
- ASSAY: radiometric filter-binding kinase assay
- RECORDED_CONDITIONS: compound 100.0 µM; ATP 50 µM
MEASUREMENT_LABEL: inhibition (%)

Below, 4 compounds whose answers are already recorded.
INSERT INTO results (molecule, study_system, unit_info, experimental_result) VALUES
  ('O=c1c(NC(=S)NCc2ccccc2)cnc2[nH]ccn12', 'MKNK1 (human) (UniProt Q9BUB5)', '%', 0),
  ('COc1ccc(NC(=S)Nc2cnc3[nH]cnn3c2=O)cn1', 'MKNK1 (human) (UniProt Q9BUB5)', '%', 3),
  ('Cc1cccc(C)c1-c1cn2nc(N)nc2cn1', 'MKNK1 (human) (UniProt Q9BUB5)', '%', 24),
  ('O=C(c1cccc(-c2cc3c(=O)[nH]cnc3s2)c1)N1CCOCC1', 'MKNK1 (human) (UniProt Q9BUB5)', '%', 0);

(1) CC(=O)Nc1nc2cnc(-c3c(C)cccc3C)cn2n1
(2) CC(=O)Nc1nc2cnc(-c3ccccc3)cn2n1
Enquiry: Of the pair 1 and 2 , name the member with the lesser recorded inhibition. Kindly state the label of the option you pick.
Return: 1

###

- STUDY_SYSTEM: PAK7 (human) (UniProt Q9P286)
- Sequence (Q9P286 whole entry, looked up): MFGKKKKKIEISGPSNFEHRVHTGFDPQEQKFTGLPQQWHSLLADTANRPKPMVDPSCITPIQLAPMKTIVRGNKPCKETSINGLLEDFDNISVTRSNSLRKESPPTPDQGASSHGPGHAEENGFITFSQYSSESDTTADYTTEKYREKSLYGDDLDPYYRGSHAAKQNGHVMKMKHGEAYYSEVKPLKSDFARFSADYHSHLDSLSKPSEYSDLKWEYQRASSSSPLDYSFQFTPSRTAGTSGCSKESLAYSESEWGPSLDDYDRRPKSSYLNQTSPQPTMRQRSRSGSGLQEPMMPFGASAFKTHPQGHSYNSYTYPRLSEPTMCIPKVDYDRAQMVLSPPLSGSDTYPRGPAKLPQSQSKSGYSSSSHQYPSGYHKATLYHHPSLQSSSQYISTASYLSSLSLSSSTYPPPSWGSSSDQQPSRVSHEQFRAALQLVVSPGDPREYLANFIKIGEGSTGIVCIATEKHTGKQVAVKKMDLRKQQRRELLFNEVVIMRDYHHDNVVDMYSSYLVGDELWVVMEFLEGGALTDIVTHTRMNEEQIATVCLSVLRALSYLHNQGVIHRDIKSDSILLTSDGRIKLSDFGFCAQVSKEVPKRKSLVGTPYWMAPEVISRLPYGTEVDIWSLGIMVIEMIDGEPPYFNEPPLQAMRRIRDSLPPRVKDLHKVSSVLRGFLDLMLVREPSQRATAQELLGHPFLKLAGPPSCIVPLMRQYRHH
- ASSAY: radiometric filter-binding kinase assay
- RECORDED_CONDITIONS: compound 100.0 µM; ATP 20 µM
MEASUREMENT_LABEL: inhibition (%)

Below, 2 molecules whose answers are already recorded.
INSERT INTO measurements (molecule, experimental_result) VALUES
  ('CC(=O)Nc1nc2cnc(-c3c(C)cccc3C)cn2n1', 5),
  ('CC(C)(C)Nc1c(C2CC2)nc2[nH]cnn12', 18);

(A) CC(C)(C)Nc1c(COCc2ccccc2)nc2[nH]cnn12
(B) Nc1nc2cnc(-c3ccccc3)cn2n1
(C) Nc1cnc2c(-c3c(F)cccc3F)cccn2c1=O
(D) O=C(Nc1cnc2[nH]ccn2c1=O)c1ccccc1
(E) CC(=O)Nc1nc2cnc(-c3ccccc3)cn2n1
Enquiry: Hey, quick one: sort these by inhibition, largest value first please. // format: requested-order list of labels
Return: B, C, E, D, A
(B: 79%, C: 35%, E: 20%, D: 3%, A: 0%)

(P) COc1ccc(NC(=S)Nc2cnc3[nH]cnn3c2=O)cn1
(Q) Cc1cccc(C)c1-c1cn2nc(N)nc2cn1
Enquiry: Lab notebook, comparison: P versus Q , higher inhibition goes to which? Kindly state the label of the option you pick.
Return: Q

###

- STUDY_SYSTEM: MAPK13 (human)
- ASSAY: radiometric filter-binding kinase assay
- RECORDED_CONDITIONS: compound 100.0 µM; ATP 5 µM
MEASUREMENT_LABEL: inhibition (%)

INSERT INTO assay_data (molecule, unit_info, experimental_result) VALUES
  ('CC(C)(C)Nc1c(C2CC2)nc2[nH]cnn12', '%', 0),
  ('O=c1cc(-c2ccccc2F)nc2[nH]ccn12', '%', 0),
  ('COc1ccc(NC(=S)Nc2cnc3[nH]cnn3c2=O)cn1', '%', 0);

###

- STUDY_SYSTEM: MAP3K1 (human) (UniProt Q13233)
- Sequence (Q13233 whole entry, looked up): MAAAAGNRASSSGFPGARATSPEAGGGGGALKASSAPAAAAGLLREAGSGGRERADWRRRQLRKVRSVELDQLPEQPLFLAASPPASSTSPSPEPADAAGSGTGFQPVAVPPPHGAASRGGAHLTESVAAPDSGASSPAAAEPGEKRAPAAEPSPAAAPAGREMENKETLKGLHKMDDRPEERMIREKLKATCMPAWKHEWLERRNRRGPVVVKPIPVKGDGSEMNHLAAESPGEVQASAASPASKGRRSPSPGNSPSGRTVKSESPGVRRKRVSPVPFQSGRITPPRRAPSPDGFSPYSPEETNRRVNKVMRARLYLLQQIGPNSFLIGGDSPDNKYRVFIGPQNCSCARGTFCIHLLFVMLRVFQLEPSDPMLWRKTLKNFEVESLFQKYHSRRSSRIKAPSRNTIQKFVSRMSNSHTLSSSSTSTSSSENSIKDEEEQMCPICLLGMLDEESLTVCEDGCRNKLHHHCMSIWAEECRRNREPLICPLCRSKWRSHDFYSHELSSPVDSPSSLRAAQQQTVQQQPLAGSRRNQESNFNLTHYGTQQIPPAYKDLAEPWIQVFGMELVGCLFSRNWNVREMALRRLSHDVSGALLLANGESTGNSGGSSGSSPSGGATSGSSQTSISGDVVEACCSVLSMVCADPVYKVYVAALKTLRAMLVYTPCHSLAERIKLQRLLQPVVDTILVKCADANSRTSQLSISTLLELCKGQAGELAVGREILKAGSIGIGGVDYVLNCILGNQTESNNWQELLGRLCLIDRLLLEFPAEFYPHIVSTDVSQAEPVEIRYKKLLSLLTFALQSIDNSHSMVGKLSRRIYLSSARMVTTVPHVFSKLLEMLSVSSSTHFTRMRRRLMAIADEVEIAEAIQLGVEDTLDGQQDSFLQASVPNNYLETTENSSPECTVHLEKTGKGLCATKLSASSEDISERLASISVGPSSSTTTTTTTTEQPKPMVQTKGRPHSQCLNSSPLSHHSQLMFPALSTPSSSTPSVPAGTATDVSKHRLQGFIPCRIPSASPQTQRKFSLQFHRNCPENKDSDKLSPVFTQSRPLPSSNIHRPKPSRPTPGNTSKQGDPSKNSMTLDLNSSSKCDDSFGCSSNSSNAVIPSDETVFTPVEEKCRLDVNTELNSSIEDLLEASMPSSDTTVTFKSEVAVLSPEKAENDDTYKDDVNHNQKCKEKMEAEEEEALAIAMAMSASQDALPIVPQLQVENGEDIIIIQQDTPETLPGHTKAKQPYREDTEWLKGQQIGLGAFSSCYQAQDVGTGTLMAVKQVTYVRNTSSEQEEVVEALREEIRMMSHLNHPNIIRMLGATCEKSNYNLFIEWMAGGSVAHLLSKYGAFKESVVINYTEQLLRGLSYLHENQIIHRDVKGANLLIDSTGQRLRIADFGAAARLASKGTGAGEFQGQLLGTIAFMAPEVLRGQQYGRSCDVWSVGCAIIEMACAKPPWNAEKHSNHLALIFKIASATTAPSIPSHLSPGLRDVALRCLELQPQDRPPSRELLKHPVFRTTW
- ASSAY: radiometric filter-binding kinase assay
- RECORDED_CONDITIONS: compound 100.0 µM; ATP 50 µM
MEASUREMENT_LABEL: inhibition (%)

INSERT INTO assay_data (compound, measurement_label, unit_info, experimental_result) VALUES
  ('CC1CN(c2nc3ccccn3c(=O)c2N)CC(C)O1 (stereo not drawn)', 'inhibition', '%', 0);

(I) COc1ccc(-c2cc3c(=O)[nH]cnc3s2)cc1OC
(II) Nc1nc2cnc(-c3ccccc3)cn2n1
Enquiry: Of the pair I and II , name the member with the lesser recorded inhibition. Kindly state the label of the option you pick.
Return: I
(I: 0%, II: 34%)

###

- STUDY_SYSTEM: CLK2 (human) (UniProt P49760)
- Sequence (P49760 whole entry, looked up): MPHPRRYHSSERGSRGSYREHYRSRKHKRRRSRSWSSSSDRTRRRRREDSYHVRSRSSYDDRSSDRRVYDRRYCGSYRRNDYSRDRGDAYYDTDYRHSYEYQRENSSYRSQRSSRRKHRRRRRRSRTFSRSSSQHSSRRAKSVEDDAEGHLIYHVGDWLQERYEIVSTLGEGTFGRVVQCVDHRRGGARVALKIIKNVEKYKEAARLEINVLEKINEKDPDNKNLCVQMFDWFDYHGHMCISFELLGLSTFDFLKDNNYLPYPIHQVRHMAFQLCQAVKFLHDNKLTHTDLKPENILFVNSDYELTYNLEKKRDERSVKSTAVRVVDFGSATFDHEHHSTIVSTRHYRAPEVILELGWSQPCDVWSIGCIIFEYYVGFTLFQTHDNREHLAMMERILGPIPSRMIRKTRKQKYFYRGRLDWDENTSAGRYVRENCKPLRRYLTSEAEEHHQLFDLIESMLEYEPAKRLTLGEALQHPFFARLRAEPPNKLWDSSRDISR
- ASSAY: radiometric filter-binding kinase assay
- RECORDED_CONDITIONS: compound 100.0 µM; ATP 5 µM
MEASUREMENT_LABEL: inhibition (%)

(a) O=c1cc(-c2ccccc2F)nc2[nH]ccn12
(b) CC(=O)Nc1nc2cnc(-c3c(C)cccc3C)cn2n1
Enquiry: Lab notebook, comparison: a versus b , higher inhibition goes to which? Kindly state the label of the option you pick.
Return: a
(a: 48%, b: 28%)

(a) CC(C)(C)Nc1c(COCc2ccccc2)nc2[nH]cnn12
(b) O=C(Nc1cnc2[nH]cnn2c1=O)c1ccccc1
(c) O=c1c(NC(=S)NCc2ccccc2)cnc2[nH]ccn12
(d) CC(=O)Nc1nc2cnc(-c3ccccc3)cn2n1
(e) COc1ccc(NC(=S)Nc2cnc3[nH]cnn3c2=O)cn1
Enquiry: Hey, quick one: sort these by inhibition, largest value first please. // format: requested-order list of labels
Return: d, a, c, e, b
(d: 79%, a: 43%, c: 3%, e: 1%, b: 0%)

###

- STUDY_SYSTEM: YES1 (human)
- ASSAY: radiometric filter-binding kinase assay
- RECORDED_CONDITIONS: compound 100.0 µM; ATP 20 µM
MEASUREMENT_LABEL: inhibition (%)

INSERT INTO assay_data (compound, study_system, experimental_result) VALUES
  ('CC(=O)Nc1nc2cnc(-c3ccccc3)cn2n1', 'YES1 (human)', 35),
  ('COc1ccc(-c2cc3c(=O)[nH]cnc3s2)cc1OC', 'YES1 (human)', 0),
  ('CC1CN(c2nc3ccccn3c(=O)c2N)CC(C)O1 (stereo not given)', 'YES1 (human)', 57),
  ('O=C(Nc1cnc2[nH]cnn2c1=O)c1ccccc1', 'YES1 (human)', 0),
  ('CC(C)(C)Nc1c(COCc2ccccc2)nc2[nH]cnn12', 'YES1 (human)', 4),
  ('Cc1cccc(C)c1-c1cn2nc(N)nc2cn1', 'YES1 (human)', 42);

(a) Nc1cnc2c(-c3c(F)cccc3F)cccn2c1=O
(b) O=C(c1cccc(-c2cc3c(=O)[nH]cnc3s2)c1)N1CCOCC1
Enquiry: Of the pair a and b , name the member with the lesser recorded inhibition. Kindly state the label of the option you pick.
Return: b
(b: 0%, a: 57%)

(A) O=c1cc(-c2ccccc2F)nc2[nH]ccn12
(B) O=C(Nc1cnc2[nH]ccn2c1=O)c1ccccc1
Enquiry: Of the pair A and B , name the member with the lesser recorded inhibition. Kindly state the label of the option you pick.
Return: B
(B: 11%, A: 33%)

(a) CC(=O)Nc1nc2cnc(-c3c(C)cccc3C)cn2n1
(b) COc1ccc(NC(=S)Nc2cnc3[nH]cnn3c2=O)cn1
Enquiry: Lab notebook, comparison: a versus b , higher inhibition goes to which? Kindly state the label of the option you pick.
Return: b
(b: 30%, a: 17%)
